Values compiled from PubChem BioAssay (NCI).

test system: MOLT-4 leukemia; assay: NCI tumour cell line growth inhibition, 48 h
Label T when TGI >= 50 µM; otherwise F.

Below, 5 compounds whose answers are already recorded.
# COMPOUND, GROUP
rows = [
    ("Cc1ccc(-c2cc(-c3ccccc3)c(C#N)c(=O)n2C2OC(CO)C(O)C(O)C2O)cc1 (stereo unspecified)", "T"),
    ("CSC(SC)=C(C(=O)O)P(=O)(O)O", "T"),
    ("Cc1[nH]c(=O)nc(NCCNCCO)c1C(=O)Nc1cccc2cc3ccccc3cc12", "T"),
    ("O=P(O)(O)c1ccccc1Oc1ccccc1", "T"),
    ("CC(C)C(CC(=O)OCC(CO)OC(=O)CC(C(C)C)C(C)C)C(C)C (stereo unspecified)", "F"),
]

## Input Textbook exercise: given the entry "O=C1NC(=S)S/C1=C(/C=C(\CC(=O)c1ccccc1)c1ccc(Cl)cc1)c1ccccc1" , state whether its TGI is greater than or equal to 50 µM.
## Output T

## Input Textbook exercise: given the entry COC(=O)C1(CCCCCBr)CCCCCCCCCCC1=O (stereo unspecified) , state whether its TGI is greater than or equal to 50 µM.
## Output F

## Input Textbook exercise: given the entry "Cc1ccc(-c2csc(NC(=O)CN3CCN(c4cc5c(cc4F)c(=O)c(C(=O)O)cn5C4CC4)CC3)n2)cc1" , state whether its TGI is greater than or equal to 50 µM.
## Output T

## Input Textbook exercise: given the entry Fc1cc2[nH]ncc2c2c3c(c(-c4cn[nH]c4C(F)(F)F)nc12)C1CCC3C1 (stereo unspecified) , state whether its TGI is greater than or equal to 50 µM.
## Output F

## Input Textbook exercise: given the entry COC(=O)C1CCc2sc3ncnc(Nc4cn[nH]c4C(=O)Nc4ccc(CN5CCN(C)CC5)cc4)c3c21 (stereo unspecified) , state whether its TGI is greater than or equal to 50 µM.
## Output F

## Input Textbook exercise: given the entry "c1ccc2c(c1)Sc1nccc3ccnc-2c13" , state whether its TGI is greater than or equal to 50 µM.
## Output T

## Input Textbook exercise: given the entry "CO[C@H]1SC[C@H](OC(C)=O)[C@H](OC(C)=O)[C@H]1OC(C)=O" , state whether its TGI is greater than or equal to 50 µM.
## Output T

## Input Textbook exercise: given the entry "O=C(CCc1cc(O)cc(O)c1)NCCCNC(=O)CCc1cc(O)cc(O)c1" , state whether its TGI is greater than or equal to 50 µM.
## Output T

## Input Textbook exercise: given the entry CC1CCC2(NC1)OC1CC3C4CC=C5CC(OC6OC(CO)C(OC7OC(C)C(O)C(O)C7O)C(O)C6OC6OC(C)C(O)C(O)C6O)CCC5(C)C4CCC3(C)C1C2C (stereo unspecified) , state whether its TGI is greater than or equal to 50 µM.
## Output F

## Input Textbook exercise: given the entry "C=C(C)OCOCCOC" , state whether its TGI is greater than or equal to 50 µM.
## Output T

---

system: KM12 colon; assay: NCI tumour cell line growth inhibition, 48 h
Entries annotated with measured log10 TGI
// stored as log10 of TGI expressed in µM

# COMPOUND, MEASUREMENT TARGET, log10 TGI
data = [
    ("CCOC(=O)/C=C/C1=C(c2cccs2)c2ccccc2CC1", "KM12 colon", 1.95),
]

## Input # get_value(readout= log10 TGI, system= KM12 colon) for Fc1cc2[nH]ncc2c2c3c(c(-c4cn[nH]c4C(F)(F)F)nc12)C1CCC3C1 (stereo not given)
## Output 0.80

## Input # get_value(readout= log10 TGI, system= KM12 colon) for "Cc1nc2sccn2c1-c1csc(Nc2cccc(Cl)c2C)n1"
## Output 1.34

## Input # get_value(readout= log10 TGI, system= KM12 colon) for CCOP(=O)(OCC)OC(C#N)c1ccc(-c2ccccc2)cc1 (stereo not given)
## Output 1.52

## Input # get_value(readout= log10 TGI, system= KM12 colon) for COc1cccc2c1C(=O)c1c(O)c3c(c(O)c1C2=O)C[C@H](O)C[C@@H]3OC1CC(N)C(O)C(C)O1 (stereo not given in full)
## Output 1.00
